Where these numbers come from: the supplement of paper PMC10567573

B1: DLC1 (parent)
chain: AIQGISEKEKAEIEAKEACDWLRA

variants of: B1; test: protein stability index of a GFP-peptide fusion (GPS, HEK-293T) (PSI 1-6); higher = more stable; conditions: c terminus: a fixed tail appended;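 further: lentivirally expressed fusions sorted by FACS into six bins by GFP to DsRed ratio, PSI derived from sequencing read proportions per bin multiplied by bin number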
Mark 1.0 for reported protein stability index of 4 or greater; mark 0.0 for anything smaller.

sequence.content	answer.label
AIQGISEKECAEIEAKEACDWLRA	1.0
AIQGISEKEKAEIEAKEACDWLRL	1.0
AIQGISEKEKAWIEAKEACDWLRA	0.0
AIQGISEKEKAEIEVKEACDWLRA	1.0
AIQGISEKEKWEIEAKEACDWLRA	0.0
AIQGISEKEKAEIEAKEACDWLRT	1.0
AIQGISLKEKAEIEAKEACDWLRA	0.0
AIQGISEKEKAEIEAKEACDWLVA	1.0
AIQGISEKEKAEIEAKEACDPLRA	1.0
AIQGISEEEKAEIEAKEACDWLRA	1.0
AIQGISEYEKAEIEAKEACDWLRA	0.0
AIQGISEKEKAEIEAKEANDWLRA	1.0
AIQGVSEKEKAEIEAKEACDWLRA	1.0
AIQGISTKEKAEIEAKEACDWLRA	1.0
AIQGISEKEKAEIRAKEACDWLRA	0.0
AIQGISEKEKAEIEAKLACDWLRA	0.0
AIQGISEKEKYEIEAKEACDWLRA	1.0
AIQGISEKEKAEIEAKEACDWLRH	1.0
AIQGISEKEKAEIENKEACDWLRA	1.0
AIQGIPEKEKAEIEAKEACDWLRA	1.0
ARQGISEKEKAEIEAKEACDWLRA	1.0
